biological target: IDO1 in HeLa cells (Homo sapiens (Human), UniProt P14902); test: HeLa cell based IDO1 assay (IFNγ-induced, KYN in supernatant)
pIC50: −log10 of the molar value.
Readout Kind: pIC50

Molecule	Readout Kind	Recorded Measurement
Nc1oc2c(-c3ccncc3)nccc2c1Nc1cc(F)cc(F)c1 [Compound 187]	pIC50	> 6.70
Nc1oc2c(Cc3ccccc3)nccc2c1Nc1ccc(F)c(Cl)c1 [Compound 86]	pIC50	> 6.70
C#Cc1cc(Nc2c(N)oc3c(-c4ccccc4)nccc23)ccc1F [Compound 110]	pIC50	> 6.70

[Q] Please look at this molecule and report its pIC50: Nc1oc2c(-c3cc(F)cc(F)c3)nccc2c1Nc1ccc(F)c(Cl)c1 [Compound 278]
[A] > 6.70

* * *

The listing below reports pIC50 for compounds tested on Human indoleamine 2,3-dioxygenase1 (hIDO1) (Homo sapiens (Human), UniProt P14902).
Sequence (P14902 whole entry): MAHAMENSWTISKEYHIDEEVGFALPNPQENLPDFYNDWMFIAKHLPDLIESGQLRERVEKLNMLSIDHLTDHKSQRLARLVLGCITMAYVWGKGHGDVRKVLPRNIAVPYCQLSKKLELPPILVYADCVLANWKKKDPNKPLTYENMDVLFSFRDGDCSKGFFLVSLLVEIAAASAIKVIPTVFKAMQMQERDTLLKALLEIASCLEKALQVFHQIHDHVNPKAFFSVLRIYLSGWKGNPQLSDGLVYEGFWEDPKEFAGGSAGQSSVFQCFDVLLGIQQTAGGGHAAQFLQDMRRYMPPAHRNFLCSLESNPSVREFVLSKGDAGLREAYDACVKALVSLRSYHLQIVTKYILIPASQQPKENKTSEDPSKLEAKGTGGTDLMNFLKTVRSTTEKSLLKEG
pIC50: −log10 of the molar value.

Compound	pIC50
Nc1sc2ccccc2c1Nc1cccc(Br)c1 [Compound 230]	> 6.70
Nc1oc2cnccc2c1Nc1cccc(Cl)c1 [Compound 8]	6.00 to 6.70
Nc1oc2cnccc2c1Nc1ccc2c(c1)OCO2 [Compound 35]	6.00 to 6.70

// below: pIC50 requested for another compound
[Q] Find the measured pIC50 of CCOC(=O)Nc1oc2c(-c3ccccc3)nccc2c1Nc1ccc(F)c(Cl)c1 [Compound 162] with Human indoleamine 2,3-dioxygenase1 (hIDO1) (Homo sapiens (Human), UniProt P14902) as test system.
[A] < 6.00

* * *

target: Human TDO (hTDO)-transfected CHO-K1 cells (Homo sapiens (Human)); test: CHO-K1 cell based TDO assay; details: hTDO cellular assay
Readout Kind: IC50

[Q] Please look at this compound and report its IC50: Nc1oc2cnccc2c1Nc1ccc(Cl)c(Cl)c1 [Compound 15]
[A] 500 to 2000 nM

[Q] Please look at this compound and report its IC50: Nc1sc2ccccc2c1Nc1cccc(Br)c1 [Compound 230]
[A] 500 to 2000 nM

[Q] Please look at this compound and report its IC50: Nc1oc2cnccc2c1Nc1ccc(N2CCOCC2)cc1 [Compound 11]
[A] > 2000 nM

* * *

molecular target: IDO1 in HeLa cells (Homo sapiens (Human), UniProt P14902); test: HeLa cell based IDO1 assay (IFNγ-induced, KYN in supernatant)
pIC50: −log10 of the molar value.
Readout Kind: pIC50

Solved cases (10 shown):
Compound	Readout Kind	Recorded Measurement
CCc1cccc(Nc2c(N)oc3cnccc23)c1	pIC50	6.00 to 6.70
COc1cc(Nc2c(N)oc3cnccc23)ccc1Cl	pIC50	6.00 to 6.70
Nc1oc2cnccc2c1Nc1cccc(CC2CC2)c1	pIC50	6.00 to 6.70
Nc1oc2c(N3CCOCC3)nccc2c1Nc1ccc(F)c(Cl)c1	pIC50	> 6.70
Nc1oc2c(-c3ccc(F)c(F)c3)nccc2c1Nc1ccc(F)c(Cl)c1	pIC50	> 6.70
Nc1oc2c(-c3cccc(C(F)(F)F)c3)nccc2c1Nc1ccc(F)c(Cl)c1	pIC50	> 6.70
Nc1oc2cnc(F)cc2c1Nc1ccccc1Cl	pIC50	> 6.70
Nc1oc2cnccc2c1Nc1ccc(F)c(OC(F)(F)F)c1	pIC50	> 6.70
N#Cc1ccc(-c2cccc3c(Nc4ccc(F)c(Cl)c4)c(N)sc23)cc1	pIC50	> 6.70
Nc1oc2cnccc2c1Nc1ccc2c(c1)CCCC2	pIC50	> 6.70

[Q] Find the measured pIC50 of `Nc1oc2c(-c3ccncc3)nccc2c1Nc1cccc(Cl)c1` with IDO1 in HeLa cells (Homo sapiens (Human), UniProt P14902) as test system.
[A] > 6.70

[Q] Find the measured pIC50 of `N#Cc1nccc2c(Nc3ccc(F)c(Cl)c3)c(N)oc12` with IDO1 in HeLa cells (Homo sapiens (Human), UniProt P14902) as test system.
[A] > 6.70

* * *

// values below are reported IC50
target: Human TDO (hTDO)-transfected CHO-K1 cells (Homo sapiens (Human), UniProt P48775); test: CHO-K1 cell based TDO assay; conditions: hTDO cellular assay
Sequence (P48775 whole entry): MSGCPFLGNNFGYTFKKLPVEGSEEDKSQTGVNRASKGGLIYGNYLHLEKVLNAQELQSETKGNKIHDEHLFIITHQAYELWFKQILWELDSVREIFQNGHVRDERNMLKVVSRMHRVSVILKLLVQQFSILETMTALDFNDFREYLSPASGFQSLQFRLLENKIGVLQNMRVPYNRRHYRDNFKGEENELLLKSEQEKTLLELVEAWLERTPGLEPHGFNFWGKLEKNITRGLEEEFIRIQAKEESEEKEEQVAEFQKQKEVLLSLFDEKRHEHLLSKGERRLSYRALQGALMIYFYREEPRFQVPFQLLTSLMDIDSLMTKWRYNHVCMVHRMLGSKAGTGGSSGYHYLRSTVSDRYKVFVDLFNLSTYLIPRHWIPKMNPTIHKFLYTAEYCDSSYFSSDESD

[Q] Please look at this compound and report its IC50: N#Cc1nccc2c(Nc3ccc(F)c(Cl)c3)c(N)oc12 [Compound 103]
[A] < 500 nM

* * *

// values below are reported IC50
biological target: IDO1 in HeLa cells (Homo sapiens (Human)); assay: HeLa cell based IDO1 assay (IFNγ-induced, KYN in supernatant)

[Q] Please look at this compound and report its IC50: `Nc1oc2cnc(F)cc2c1Nc1ccc(F)c(F)c1`
[A] < 200 nM

[Q] Please look at this compound and report its IC50: `Nc1oc2cnccc2c1Nc1ccc(F)cc1Br`
[A] 200 to 1000 nM

[Q] Please look at this compound and report its IC50: `CCCc1nccc2c(Nc3ccc(F)c(C(F)(F)F)c3)c(N)oc12`
[A] < 200 nM

[Q] Please look at this compound and report its IC50: `CCOC(=O)Nc1oc2c(-c3ccnc(C)c3)nccc2c1N(C(=O)OCC)c1ccc(F)c(F)c1`
[A] > 1000 nM

[Q] Please look at this compound and report its IC50: `CCc1nccc2c(Nc3cccc(C(F)(F)F)c3)c(N)oc12`
[A] < 200 nM

[Q] Please look at this compound and report its IC50: `Nc1oc2c(-c3ccc4c(c3)OCO4)nccc2c1Nc1ccc(F)c(Cl)c1`
[A] < 200 nM

* * *

// values below are reported IC50
target: Human TDO (hTDO)-transfected CHO-K1 cells (Homo sapiens (Human), UniProt P48775); experiment: CHO-K1 cell based TDO assay; conditions: hTDO cellular assay

Solved cases (2 shown):
Molecule	Readout Kind	Recorded Measurement
Cc1ccc(Nc2c(N)oc3cnccc23)cc1Cl [Compound 33]	IC50	500 to 2000 nM
Nc1oc2c(N3CCOCC3)nccc2c1Nc1ccc(F)c(Cl)c1 [Compound 245]	IC50	500 to 2000 nM

[Q] Please look at this molecule and report its IC50: COc1ccccc1-c1nccc2c(Nc3ccc(F)c(F)c3)c(N)oc12 [Compound 196]
[A] < 500 nM

* * *

target: IDO1 in HeLa cells (Homo sapiens (Human), UniProt P14902); assay: HeLa cell based IDO1 assay (IFNγ-induced, KYN in supernatant)
Structures can show the parent of a compound that is named as a salt.
Readout Kind: IC50

Solved cases (5 shown):
Molecule	Target Desc	Recorded Measurement
Cc1cc(-c2nccc3c(Nc4ccc(F)c(F)c4)c(N)oc23)ccn1 [Compound 198]	IDO1 in HeLa cells (Homo sapiens (Human), UniProt P14902)	< 200 nM
O=C(Nc1oc2cnccc2c1Nc1ccc(F)c(Cl)c1)OCc1ccccc1 [Compound 139]	IDO1 in HeLa cells (Homo sapiens (Human), UniProt P14902)	> 1000 nM
Nc1oc2c(-c3ccncc3)nccc2c1Nc1ccc(F)cc1 [Compound 201]	IDO1 in HeLa cells (Homo sapiens (Human), UniProt P14902)	< 200 nM
CCc1ccccc1Nc1c(N)sc2ccccc12 [Compound 232, hydrochloride]	IDO1 in HeLa cells (Homo sapiens (Human), UniProt P14902)	> 1000 nM
C#Cc1cc(Nc2c(N)oc3c(-c4ccncc4)nccc23)ccc1F [Compound 111]	IDO1 in HeLa cells (Homo sapiens (Human), UniProt P14902)	< 200 nM

// below: IC50 requested for another molecule
[Q] Find the measured IC50 of COCCNC(=O)c1ccc(-c2nccc3c(Nc4ccc(F)c(Cl)c4)c(N)oc23)cc1 [Compound 169] with IDO1 in HeLa cells (Homo sapiens (Human), UniProt P14902) as test system.
[A] < 200 nM

* * *

biological target: Human TDO (hTDO)-transfected CHO-K1 cells (Homo sapiens (Human)); assay: CHO-K1 cell based TDO assay; settings: hTDO cellular assay
// values below are reported IC50

Solved cases (6 shown):
Smiles Entry	Target Desc	IC50
CCOC(=O)Nc1oc2c(C#N)nccc2c1N(C(=O)OCC)c1ccc(F)c(C(F)(F)F)c1	Human TDO (hTDO)-transfected CHO-K1 cells (Homo sapiens (Human))	> 2000 nM
Cc1cc(-c2nccc3c(Nc4ccc(F)c(Cl)c4)c(N)oc23)cc(C)n1	Human TDO (hTDO)-transfected CHO-K1 cells (Homo sapiens (Human))	> 2000 nM
Nc1oc2cnccc2c1Nc1cccc(C2CC2)c1	Human TDO (hTDO)-transfected CHO-K1 cells (Homo sapiens (Human))	> 2000 nM
N#Cc1nccc2c(Nc3ccc(F)c(Cl)c3)c(NC(=O)OCc3ccccc3)oc12	Human TDO (hTDO)-transfected CHO-K1 cells (Homo sapiens (Human))	500 to 2000 nM
COc1cc(Nc2c(N)oc3cnccc23)ccc1Cl	Human TDO (hTDO)-transfected CHO-K1 cells (Homo sapiens (Human))	500 to 2000 nM
Nc1oc2c(-c3ccnc(C(F)(F)F)c3)nccc2c1Nc1ccc(F)c(Cl)c1	Human TDO (hTDO)-transfected CHO-K1 cells (Homo sapiens (Human))	> 2000 nM

// below: IC50 requested for another compound
[Q] Please look at this compound and report its IC50: `Nc1oc2cnccc2c1Nc1cc(Cl)ccc1Cl`
[A] > 2000 nM

Origin of the recorded values: patent US10294212B2
